The origin of these recorded values is PubChem BioAssay AID1996.

- CONDITION_SUMMARY: buffer; pH 7.4; 200.0 µM
In this section, each of the compounds is paired with its reported solubility kinetic.
# number only, unit µg/mL dropped from output

Reference set (4 entries):
[
  {
    "CHEMICAL_STRUCTURE": "O=C(NCc1ccccn1)C(=O)Nc1nc(-c2ccccc2)cs1",
    "solubility kinetic, µg/mL": 1.6
  },
  {
    "CHEMICAL_STRUCTURE": "O=C(COC(=O)c1ccccn1)Nc1ccc2c(c1)OCCO2",
    "solubility kinetic, µg/mL": 44.4
  },
  {
    "CHEMICAL_STRUCTURE": "CCOC(=O)C(=O)Nc1ccc(OCc2ccccc2)cc1",
    "solubility kinetic, µg/mL": 30.2
  },
  {
    "CHEMICAL_STRUCTURE": "Cn1cnc(S(=O)(=O)Nc2ccc3c(c2)OCCO3)c1",
    "solubility kinetic, µg/mL": 30.2
  }
]

Need solubility kinetic of O=S(=O)(c1ccc2ccccc2c1)N1CCOCC1 , thanks.
20.2

----------
- CONDITION_SUMMARY: buffer; pH 7.4; 200.0 µM
In this section, each of the compounds is paired with its reported solubility kinetic.
# number only, unit µg/mL dropped from output

[
  {
    "CHEMICAL_STRUCTURE": "CC(=O)c1sc(NCc2ccccc2)nc1C",
    "solubility kinetic [µg/mL]": 31.8
  }
]

Need solubility kinetic of O=C(NCc1ccco1)c1cc([N+](=O)[O-])ccc1N1CCOCC1 , thanks.
46.4

Same lookup for Cc1ccnc(NC(=O)c2cccc(NC(=O)c3ccccc3C)c2)c1 , please.
2.1

----------
- CONDITION_SUMMARY: buffer; pH 7.4; 200.0 µM
PROPERTY: solubility kinetic (µg/mL)
# number only, unit µg/mL dropped from output

Reference set (4 entries):
[
  {
    "COMPOUND": "O=C(Nc1ccc(Nc2ccccc2)cc1)c1ccccc1F",
    "solubility kinetic (µg/mL)": 1.5
  },
  {
    "COMPOUND": "COc1ccc(/C=C/C(=O)O)cc1S(=O)(=O)N1CCC(Cc2ccccc2)CC1",
    "solubility kinetic (µg/mL)": 61.6
  },
  {
    "COMPOUND": "CC(=O)Nc1c(-c2ccccc2)nc2cc(C)ccn12",
    "solubility kinetic (µg/mL)": 29.4
  },
  {
    "COMPOUND": "CN1CCc2c(sc3nc(NCCO)n(-c4cccc(Cl)c4)c(=O)c23)C1",
    "solubility kinetic (µg/mL)": 58.3
  }
]

Need solubility kinetic of Cc1cc(C)cc(NC2=NCCCS2)c1 , thanks.
32.1

Same lookup for CC(C)=NOc1nc(N(C)C)nc(N2CCOCC2)n1 , please.
41.9

Same lookup for CCCOc1ccc(-c2csc3nc[nH]c(=O)c23)cc1 , please.
2.9

Same lookup for O=C(Nc1ccc(Cl)cc1)C1CCCC1 , please.
15.8

Same lookup for Nc1ccccc1SCCS(=O)(=O)c1ccc(Cl)cc1 , please.
2.2

Same lookup for CN1OC[C@@H]2COc3ccc4ccccc4c3[C@@H]21 , please.
33.1

Same lookup for COc1ccc(NC(=O)C2CCCN(C(=O)Nc3ccc(OC)cc3)C2)cc1 (stereo not given) , please.
7.5

Same lookup for CCS(=O)(=O)N1CCCC(C(=O)c2ccc(OC)cc2C)C1 (stereo not given) , please.
42

Same lookup for NC(=O)c1ccc(NC(=O)CN2CCOCC2)cc1 , please.
35.6

Same lookup for CC1CCCCC1NC(=O)Cn1cc([N+](=O)[O-])ccc1=O (stereo not given) , please.
29.1

Same lookup for O=C(c1ccc(Br)cc1)N1CCCc2ccccc21 , please.
14

Same lookup for COc1ccc(NS(=O)(=O)c2cn(C)cn2)cc1OC , please.
32.9

----------
- CONDITION_SUMMARY: buffer; pH 7.4; 200.0 µM
PROPERTY: solubility kinetic (µg/mL)
# number only, unit µg/mL dropped from output

Reference set (10 entries):
[
  {
    "COMPOUND": "COc1cccc(NC(=O)CN2CCSc3ccccc32)c1",
    "PROPERTY": "solubility kinetic",
    "NUMERIC_RESULT": 25.5
  },
  {
    "COMPOUND": "Cc1ccc(S(=O)(=O)N2CCOCC2)cc1C(=O)OCC(=O)NCCc1ccc(F)cc1",
    "PROPERTY": "solubility kinetic",
    "NUMERIC_RESULT": 60.2
  },
  {
    "COMPOUND": "NS(=O)(=O)c1ccc(NC(=O)CN2CCc3ccccc32)cc1",
    "PROPERTY": "solubility kinetic",
    "NUMERIC_RESULT": 23.6
  },
  {
    "COMPOUND": "Nc1ccccc1N1C(=O)c2cccc3cccc(c23)C1=O",
    "PROPERTY": "solubility kinetic",
    "NUMERIC_RESULT": 4.3
  },
  {
    "COMPOUND": "CC(CCc1ccccc1)NC(=O)Cc1ccc(Br)cc1 (centres undefined)",
    "PROPERTY": "solubility kinetic",
    "NUMERIC_RESULT": 2.5
  },
  {
    "COMPOUND": "Cc1ccc(C(=O)Nc2cccc3ccccc23)cc1",
    "PROPERTY": "solubility kinetic",
    "NUMERIC_RESULT": 0.8
  },
  {
    "COMPOUND": "O=C(Nc1ccccc1)Nc1ccc2c(c1)CCC2",
    "PROPERTY": "solubility kinetic",
    "NUMERIC_RESULT": 0.4
  },
  {
    "COMPOUND": "Cc1cc(C(=O)N2CCCc3ccccc32)ccc1[N+](=O)[O-]",
    "PROPERTY": "solubility kinetic",
    "NUMERIC_RESULT": 34.7
  },
  {
    "COMPOUND": "COc1cc(SC)ccc1C(=O)NCCc1c[nH]c2ccccc12",
    "PROPERTY": "solubility kinetic",
    "NUMERIC_RESULT": 6.1
  },
  {
    "COMPOUND": "COc1cccc(NC(=O)COC(=O)C2C3CC4OC(=O)C2C4C3)c1 (centres undefined)",
    "PROPERTY": "solubility kinetic",
    "NUMERIC_RESULT": 49.5
  }
]

Need solubility kinetic of O=C1NC(c2ccccc2Br)=N/C1=C\c1ccco1 , thanks.
13.6

Same lookup for O=[N+]([O-])c1ccc(N2CCN(c3ccccc3)CC2)nc1 , please.
0.6

----------
In this section, each of the molecules is paired with its reported solubility kinetic.
- CONDITION_SUMMARY: buffer; pH 7.4; 200.0 µM

Need solubility kinetic of O=C(NC1CC1)C1CCN(C(=O)c2ccc(Cl)cc2Cl)CC1 , thanks.
> 51.2 µg/mL

----------
- CONDITION_SUMMARY: buffer; pH 7.4; 200.0 µM
PROPERTY: solubility kinetic (µg/mL)
# number only, unit µg/mL dropped from output

Reference set (5 entries):
[
  {
    "COMPOUND": "O=C(NC(=S)Nc1ccccc1Br)C1CCCC1",
    "UNIT_ABBREVIATION": "µg/mL",
    "solubility kinetic": 2.7
  },
  {
    "COMPOUND": "COc1ccccc1CC(=O)NC1CC1",
    "UNIT_ABBREVIATION": "µg/mL",
    "solubility kinetic": 29.6
  },
  {
    "COMPOUND": "O=C(O)CNc1ccc(S(=O)(=O)C(F)(F)F)cc1[N+](=O)[O-]",
    "UNIT_ABBREVIATION": "µg/mL",
    "solubility kinetic": 44.7
  },
  {
    "COMPOUND": "CS(=O)(=O)c1ccc(NCCN2CCOCC2)c([N+](=O)[O-])c1",
    "UNIT_ABBREVIATION": "µg/mL",
    "solubility kinetic": 44.4
  },
  {
    "COMPOUND": "Cc1ccc(S(=O)(=O)N2CCCCC2)cc1NC(=O)COc1ccccc1",
    "UNIT_ABBREVIATION": "µg/mL",
    "solubility kinetic": 4.3
  }
]

Need solubility kinetic of CCOC(=O)Nc1ccc2nc3n(c(=O)c2c1)CCCCC3 , thanks.
9.1

----------
- CONDITION_SUMMARY: buffer; pH 7.4; 200.0 µM
In this section, each of the compounds is paired with its reported solubility kinetic.
# number only, unit µg/mL dropped from output

Reference set (2 entries):
[
  {
    "COMPOUND": "C[C@@H]1CN(Cc2nc(-c3ccc(Cl)cc3)no2)C[C@H](C)O1",
    "solubility kinetic / µg/mL": 44
  },
  {
    "COMPOUND": "OC1(c2ccccn2)COc2ccccc2O1 (stereo unspecified)",
    "solubility kinetic / µg/mL": 28.1
  }
]

Need solubility kinetic of COc1ccc(C(=O)OCC(=O)NC2CCCC2)c(OC)c1 , thanks.
44.8
